Molecular target: BACE2 (Rattus norvegicus, UniProt Q6IE75)
Construct: endogenous cellular BACE2 in the Ins1e rat cell line; endogenous in cells
Test: Assay for BACE inhibition by measuring cellular TMEM27 cleavage (INS-TMEM27 cells, ELISA of shed TMEM27)
Conditions: inhibition of human TMEM27 cleavage by endogenous cellular BACE2 in Ins1e rat cell line; ELISA of culture medium
Hi! Just check whether IC50 is below 20 nM. Below gives Y, equal or above gives N.

Exercise: Does the reported IC50 of `C[C@]1(c2cc(NC(=O)c3ncc(F)cc3F)ccc2F)N=C(N)OCC12CC2` stay below 20 nM?
Key: Y

Exercise: Next compound: `C[C@@]1(c2cc(NC(=O)c3ncccc3C(F)(F)F)ccc2F)CCOC(N)=N1`
Key: N

***
Exercise: Bench note: check whether `C[C@@]1(c2cc(NC(=O)c3ncc(C(F)(F)F)cc3Cl)ccc2F)CCOC(N)=N1` shows IC50 below 20 nM
Key: Y

Exercise: Input `COc1ccc(C(=O)Nc2ccc(F)c([C@@]3(C)N=C(N)OCC34CC4)c2)nc1`
Key: N

* * *

Molecular target: BACE2 (Rattus norvegicus)
Construct: endogenous cellular BACE2 in the Ins1e rat cell line; endogenous in cells
Sequence (Q6IE75 63-514): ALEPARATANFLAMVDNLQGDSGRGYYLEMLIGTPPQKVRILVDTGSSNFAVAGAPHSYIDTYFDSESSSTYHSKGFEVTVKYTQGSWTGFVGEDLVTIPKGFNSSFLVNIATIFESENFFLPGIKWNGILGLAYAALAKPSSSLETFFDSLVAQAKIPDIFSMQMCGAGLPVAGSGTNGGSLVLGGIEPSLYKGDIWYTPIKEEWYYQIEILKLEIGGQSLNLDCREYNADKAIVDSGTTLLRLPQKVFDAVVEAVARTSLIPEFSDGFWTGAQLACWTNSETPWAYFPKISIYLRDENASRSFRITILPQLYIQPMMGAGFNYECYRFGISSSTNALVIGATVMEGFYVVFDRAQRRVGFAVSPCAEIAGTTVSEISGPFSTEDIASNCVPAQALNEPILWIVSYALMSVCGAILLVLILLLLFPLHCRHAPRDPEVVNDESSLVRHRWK
Assay: Assay for BACE inhibition by measuring cellular TMEM27 cleavage (INS-TMEM27 cells, ELISA of shed TMEM27)
Conditions: inhibition of human TMEM27 cleavage by endogenous cellular BACE2 in Ins1e rat cell line; ELISA of culture medium
Procedure: Assay for BACE Inhibition by Measuring Cellular TMEM27 Cleavage […] An ELISA assay (using a pair of mouse anti-human-TMEM27 antibodies, raised against the extracellular domain of TMEM27) was used for detection of TMEM27 in the culture medium. An IC50 for BACE2 inhibition was calculated using the ELISA readout for each inhibitor concentration with standard curve-fitting software XLfit (IDBS) for the Excel spreadsheet program.
VALUE_KIND: pIC50
// pIC50 here means minus log10 of the molar concentration (mol/L)

Below are worked cases with known answers.
Exercise: Need pIC50, item `CC[C@@]1(c2cc(NC(=O)c3ncc(Cl)cc3C)ccc2F)CCOC(N)=N1`
Key: 8.05

Exercise: Would you mind doing `CC[C@@]1(c2cc(NC(=O)c3ccccn3)ccc2F)CCOC(N)=N1` as well?
Key: 7.46

Exercise: Thanks! And `C[C@@]1(c2cc(NC(=O)c3ncc(F)cc3F)ccc2F)CCOC(N)=N1` ?
Key: 8.15

Please turn your attention to the following entry.
Exercise: Could you share which pIC50 value was measured for `C[C@@]1(c2cc(NC(=O)c3ncc(F)cc3Cl)ccc2F)CCOC(N)=N1` ?
Key: 7.96

Where these numbers come from: patent US7964594B1
